# Test system: CD2F1 mice, L1210 leukemia ip, survival T/C
# experiment_summary: NCI In Vivo Anticancer Drug Screen. Data for tumor model L1210 Leukemia (intraperitoneal) in CD2F1 (CDF1) mice
# test_settings: endpoint: mean survival time; dose: 200.0 mg/kg/injection; schedule: Q04DX003 (ip); vehicle: saline; higher = longer survival
Inconclusive results and toxic doses are left out.
measured_metric: T/C

For orientation, consider the following solved cases.
{"columns": ["compound", "measured_metric", "recorded_measurement"],
 "data": [
  ["[Cl][Pt+2][Cl].[NH-]C(C(=O)O)C([NH-])C(=O)O (centres undefined)", "T/C", "104 % of control"],
  ["C=CC(=O)NC12CC3CC(CC(C3)C1)C2", "T/C", "101 % of control"],
  ["OCCN1CCOCC1", "T/C", "95 % of control"]
]}

Input line: Requested read-out: T/C. Entry: CN(C)C(CCN1CCCCC1)CN1CCCCC1 (centres undefined)
Output line: 101 % of control

---

# Test system: CD2F1 mice, L1210 leukemia ip, survival T/C
# experiment_summary: NCI In Vivo Anticancer Drug Screen. Data for tumor model L1210 Leukemia (intraperitoneal) in CD2F1 (CDF1) mice
# test_settings: endpoint: mean survival time; dose: 25.0 mg/kg/injection; schedule: Q04DX003 (ip); vehicle: saline with Tween-80; higher = longer survival
# Description: The antitumor activity of compounds was measured in mice bearing transplantable tumors. Survival or tumor size were measured and the results are expressed as the measurement made in the treated group (T) divided by the measurement made in the vehicle treated control group (C). The tumor model used in this assay is L1210 Leukemia (intraperitoneal) in CD2F1 (CDF1) mice
Inconclusive results and toxic doses are left out.
measured_metric: T/C

For orientation, consider the following solved cases.
{"columns": ["molecule", "T/C"],
 "data": [
  ["CC12CCCCC1SC(F)(F)C2(F)F (centres undefined)", "88 % of control"],
  ["CCOC(=O)C(C)(C)Oc1nn(Cc2ccccc2)c2ccccc12", "104 % of control"],
  ["O=C(O)CC(O)(CC(=O)O)C(=O)O.[Sn]", "102 % of control"]
]}

Turning to the following molecule.
Input line: Requested read-out: T/C. Entry: CN1CCN(C(=O)Nc2ccc(N=Nc3ccccc3)cc2)CC1
Output line: 95 % of control

---

# Test system: CD2F1 mice, L1210 leukemia ip, survival T/C
# experiment_summary: NCI In Vivo Anticancer Drug Screen. Data for tumor model L1210 Leukemia (intraperitoneal) in CD2F1 (CDF1) mice
# test_settings: endpoint: mean survival time; dose: 200.0 mg/kg/injection; schedule: Q04DX003 (ip); vehicle: saline with Tween-80; higher = longer survival
Toxic doses and inconclusive results are not listed.
T/C listing for selected compounds.

{"columns": ["compound", "T/C"],
 "data": [
  ["Fc1ccc2c(c1)C(Br)c1ccccc1-2 (stereo not drawn)", "88 % of control"]
]}

Input line: Request: T/C, test system CD2F1 mice, L1210 leukemia ip, survival T/C, entry CCOC(=O)c1cc(C)nc2c(Cl)cc(Cl)cc12
Output line: 88 % of control

Input line: Could you do the same for C[C@]12CCCC[C@@H]1CC[C@@H]1[C@@H]2[C@@H](O)C[C@]2(C)[C@@H](O)CC[C@@H]12 , please?
Output line: 101 % of control

---

# System: CD2F1 mice, L1210 leukemia ip, survival T/C
# experiment_summary: NCI In Vivo Anticancer Drug Screen. Data for tumor model L1210 Leukemia (intraperitoneal) in CD2F1 (CDF1) mice
# test_settings: endpoint: mean survival time; dose: 200.0 mg/kg/injection; schedule: Q04DX002 (ip); vehicle: saline with Tween-80
Toxic doses and inconclusive results are not listed. Rule for the calls: active = survival T/C of 150% or more; inactive = T/C below 125% in these data. Non-standard residues stand in square brackets, D forms with d. Residues, ends and D or L forms follow the SMILES beside them. Deg = CCC(N)(CC)C(=O)O
Pick one and only one: active, inactive

Please review the entries below; each comes with its answer.
{"columns": ["molecule", "class_name"],
 "data": [
  ["O=C(O)CCc1[nH]c2ccccc2c1CC(=O)O", "inactive"],
  ["O/N=C/C(O)(c1ccccc1)c1ccccc1", "inactive"],
  ["CC(C)(C)OOC(=O)c1ccccn1", "inactive"],
  ["Clc1ccc(SSc2ccc(Cl)cc2Cl)c(Cl)c1", "inactive"],
  ["COc1ccc([N+](=O)[O-])cc1NC(=O)Nc1ccccc1C", "inactive"]
]}

Input line: What did this assay record as the result for CCC(CC)(NC(=O)CN)C(=O)O (H-Gly-[Deg]-OH) ?
Output line: inactive

Input line: Could you do the same for CCCCCCCCCCCC(=O)NC(=S)Nc1cc(Cl)ccc1Cl , please?
Output line: inactive

Input line: Could you do the same for C=C1C(=C)C2C=CC1C1C3C(c4ccccn4)=NN=C(c4ccccn4)C3C21 (centres undefined) , please?
Output line: inactive

Input line: Could you do the same for Cc1ccc(/C(=N\Nc2ccc([N+](=O)[O-])cc2[N+](=O)[O-])C2CC2c2ccccc2)cc1 (centres undefined) , please?
Output line: inactive

Input line: Could you do the same for S=C(Nc1ccccn1)c1ccccn1 , please?
Output line: inactive

---

T/C listing for selected compounds.
# System: CD2F1 mice, L1210 leukemia ip, survival T/C
# experiment_summary: NCI In Vivo Anticancer Drug Screen. Data for tumor model L1210 Leukemia (intraperitoneal) in CD2F1 (CDF1) mice
# test_settings: endpoint: mean survival time; dose: 400.0 mg/kg/injection; schedule: Q01DX001 (ip); vehicle: saline; higher = longer survival
Inconclusive results and toxic doses are left out.

{"columns": ["compound", "T/C"],
 "data": [
  ["O=S(=O)(O)c1ccc(O)c(S(=O)(=O)O)c1", "97 % of control"],
  ["CCOCCSc1ccccc1", "102 % of control"],
  ["CC(N)C(=O)NC1C(CO)OC(n2cnc3c(N)ncnc32)C1O (stereo unspecified)", "100 % of control"],
  ["O=C1CCCC(c2ccccc2)c2ccccc21 (stereo unspecified)", "97 % of control"],
  ["O=C(O)CC1NCCC12OCCO2 (stereo unspecified)", "92 % of control"]
]}

Turning to the following compound.
Input line: Request: T/C, test system CD2F1 mice, L1210 leukemia ip, survival T/C, entry O=C(O)c1ccc(C(=O)O)nc1
Output line: 97 % of control

---

T/C listing for selected compounds.
# Test system: CD2F1 mice, L1210 leukemia ip, survival T/C
# experiment_summary: NCI In Vivo Anticancer Drug Screen. Data for tumor model L1210 Leukemia (intraperitoneal) in CD2F1 (CDF1) mice
# test_settings: endpoint: mean survival time; dose: 200.0 mg/kg/injection; schedule: Q01DX009 (ip); vehicle: saline; higher = longer survival
Inconclusive results and toxic doses are left out.

For orientation, consider the following solved cases.
{"columns": ["compound", "T/C"],
 "data": [
  ["CC(C)OC(=S)S", "102 % of control"],
  ["COC1C(O)C(CO)OC1n1cc(F)c(=O)[nH]c1=O (stereo unspecified)", "115 % of control"],
  ["CCOC(=O)Nc1cc(NC(C)CCCN(CC)CC)c2ncc(-c3cc(OC)c(OC)c(OC)c3)nc2n1 (stereo unspecified) (tested in a mixture with another compound)", "89 % of control"],
  ["O=C1Cc2ccccc2O1", "97 % of control"],
  ["O=C(O)c1ccc(SSc2ccc(C(=O)O)cn2)nc1", "96 % of control"]
]}

Turning to the following compound.
Input line: Request: T/C, test system CD2F1 mice, L1210 leukemia ip, survival T/C, entry O
Output line: 100 % of control

---

T/C listing for selected molecules.
# Test system: CD2F1 mice, L1210 leukemia ip, survival T/C
# experiment_summary: NCI In Vivo Anticancer Drug Screen. Data for tumor model L1210 Leukemia (intraperitoneal) in CD2F1 (CDF1) mice
# test_settings: endpoint: mean survival time; dose: 400.0 mg/kg/injection; schedule: Q01DX001 (ip); vehicle: saline; higher = longer survival
Inconclusive results and toxic doses are left out.

For orientation, consider the following solved cases.
{"columns": ["molecule", "T/C"],
 "data": [
  ["Nc1ccc(Cl)cc1C(=O)c1ccc[nH]1", "93 % of control"],
  ["O=C(CSCC(=O)c1ccc(Br)cc1)c1ccc(Br)cc1", "101 % of control"],
  ["CCN1C(=O)CC(O)C1=O (stereo unspecified)", "103 % of control"],
  ["COc1c2occc2c(OC)c2c(=O)cc(/C=C/c3ccccn3)oc12", "98 % of control"],
  ["CC(=O)OCC1OC(n2ncc(=O)[nH]c2=O)C(OC(C)=O)C1OC(C)=O (stereo unspecified)", "106 % of control"]
]}

Turning to the following molecule.
Input line: Requested read-out: T/C. Entry: COC1OC(COS(=O)(=O)c2ccc(C)cc2)C(SC#N)C1OS(=O)(=O)c1ccc(C)cc1 (stereo unspecified)
Output line: 95 % of control

Numbers sourced from PubChem BioAssay AID256.
